- System: human peripheral blood mononuclear cells (PBMC)
- TEST_PROTOCOL: IL-6 secretion by human PBMC (ELISA)
- Type: cell-based
- CONDITION_NOTES: 20 μg/ml, 24 h
- Description: Peripheral blood from healthy donors (Centre de transfusion, Hôpital Universitaire, Geneva) was centrifuged to get the buffy coat. […] The surpernatants of the cultures were harvested after 24 h and the concentration of IL-6 and TNF-α were measured by an enzyme-linked immunosorbent assay (ELISA) (Human IL-6 and TNF-α ELISA Set, BD OptEIA, San Diego, USA), according to the manufacturer instructions. […]
Output satisfied for IL6 not less than 800 pg/mL; output not satisfied otherwise.

// inclusive: IL6 at least 800 pg/mL? input: CCCCCCCCCCCC(=O)O[C@H](CCCCCCCCCCC)CC(=O)N[C@H]1[C@H](OC[C@H]2O[C@H](OCCC)[C@H](NC(=O)C[C@H](O)CCCCCCCCCCC)[C@@H](O)[C@@H]2O)O[C@H](CO)[C@@H](OP(=O)(O)O)[C@@H]1O
not satisfied

// inclusive: IL6 at least 800 pg/mL? input: CCCCCCCCCCCC(=O)O[C@H](CCCCCCCCCCC)CC(=O)NC1C(OCC2OC(OCCCCCCN)C(NC(=O)C[C@H](O)CCCCCCCCCCC)C(O)C2O)OC(CO)C(OP(=O)(O)O)C1O (some centres unmarked)
satisfied

// inclusive: IL6 at least 800 pg/mL? input: CCCCCCCCCCCC(=O)O[C@H](CCCCCCCCCCC)CC(=O)N[C@H]1[C@H](OC[C@H]2O[C@H](OCC(O)CO)[C@H](NC(=O)C[C@H](O)CCCCCCCCCCC)[C@@H](O)[C@@H]2O)O[C@H](CO)[C@@H](OP(=O)(O)O)[C@@H]1O (some centres unmarked)
not satisfied

// inclusive: IL6 at least 800 pg/mL? input: CCCCCCCCCCCC(=O)O[C@H](CCCCCCCCCCC)CC(=O)NC1C(OCC2OC(OP(=O)(O)O)C(NC(=O)C[C@H](O)CCCCCCCCCCC)C(O)C2O)OC(CO)C(OP(=O)(O)O)C1O (some centres unmarked)
not satisfied

// inclusive: IL6 at least 800 pg/mL? input: CCCCCCCCCCCC(=O)O[C@H](CCCCCCCCCCC)CC(=O)N[C@H]1[C@H](OC[C@H]2O[C@H](O)[C@H](NC(=O)C[C@H](O)CCCCCCCCCCC)[C@@H](O)[C@@H]2O)O[C@H](CO)[C@@H](OP(=O)(O)O)[C@@H]1O
satisfied

====

- Test system: human peripheral blood mononuclear cells (PBMC)
- TEST_PROTOCOL: TNF-α secretion by human PBMC (ELISA)
- Assay type: cell-based
- CONDITION_NOTES: 0.2 μg/ml, 24 h
READOUT_TYPE: log10 of TNF-α (log10 of the value in pg/mL)
// do not treat as linear: log10 of TNF-α, unit pg/mL

Name the recorded log10 of TNF-α of the item CCCCCCCCCCCC(=O)O[C@H](CCCCCCCCCCC)CC(=O)NC1C(OCC2OC(OCCCCCCN)C(NC(=O)C[C@H](O)CCCCCCCCCCC)C(O)C2O)OC(CO)C(OP(=O)(O)O)C1O (stereo partly drawn) in your answer.
1.47

Name the recorded log10 of TNF-α of the item CCCCCCCCCCCCCCO[C@@H]1O[C@H](CO[C@@H]2O[C@H](CO)[C@@H](OP(=O)(O)O)[C@H](O)[C@H]2NC(=O)C[C@@H](CCCCCCCCCCC)OC(=O)CCCCCCCCCCC)[C@@H](O)[C@H](O)[C@H]1NC(=O)C[C@H](O)CCCCCCCCCCC [compound 41c] in your answer.
2.76

Name the recorded log10 of TNF-α of the item CCCCCCCCCCCC(=O)O[C@H](CCCCCCCCCCC)CC(=O)N[C@H]1[C@H](OC[C@H]2O[C@H](OCC(=O)O)[C@H](NC(=O)C[C@H](O)CCCCCCCCCCC)[C@@H](O)[C@@H]2O)O[C@H](CO)[C@@H](OP(=O)(O)O)[C@@H]1O [compound 35c] in your answer.
1.68

Name the recorded log10 of TNF-α of the item CCCCCCCCCCCC(=O)O[C@H](CCCCCCCCCCC)CC(=O)N[C@H]1[C@H](OC[C@H]2O[C@H](OCC(O)CO)[C@H](NC(=O)C[C@H](O)CCCCCCCCCCC)[C@@H](O)[C@@H]2O)O[C@H](CO)[C@@H](OP(=O)(O)O)[C@@H]1O (stereo partly drawn) in your answer.
0.96

Name the recorded log10 of TNF-α of the item CCCCCCCCCCCC(=O)O[C@H](CCCCCCCCCCC)CC(=O)N[C@H]1[C@H](OC[C@H]2O[C@H](OCCC)[C@H](NC(=O)C[C@H](O)CCCCCCCCCCC)[C@@H](O)[C@@H]2O)O[C@H](CO)[C@@H](OP(=O)(O)O)[C@@H]1O in your answer.
1.66

Name the recorded log10 of TNF-α of the item CCCCCCCCCCCC(=O)O[C@H](CCCCCCCCCCC)CC(=O)N[C@H]1[C@H](OC[C@H]2O[C@H](O)[C@H](NC(=O)C[C@H](O)CCCCCCCCCCC)[C@@H](O)[C@@H]2O)O[C@H](CO)[C@@H](OP(=O)(O)O)[C@@H]1O in your answer.
-0.16

Name the recorded log10 of TNF-α of the item CCCCCCCCCCCC(=O)O[C@H](CCCCCCCCCCC)CC(=O)N[C@H]1[C@H](OC[C@H]2O[C@H](OCCOP(=O)(O)O)[C@H](NC(=O)C[C@H](O)CCCCCCCCCCC)[C@@H](O)[C@@H]2O)O[C@H](CO)[C@@H](OP(=O)(O)O)[C@@H]1O in your answer.
0.90

Name the recorded log10 of TNF-α of the item CCCCCCCCCCCC(=O)O[C@H](CCCCCCCCCCC)CC(=O)NC1C(OCC2OC(OP(=O)(O)O)C(NC(=O)C[C@H](O)CCCCCCCCCCC)C(O)C2O)OC(CO)C(OP(=O)(O)O)C1O (stereo partly drawn) in your answer.
1.57

Name the recorded log10 of TNF-α of the item CCCCCCCCCCCC(=O)O[C@H](CCCCCCCCCCC)CC(=O)NC1C(OCC2OC(OCCO)C(NC(=O)C[C@H](O)CCCCCCCCCCC)C(O)C2O)OC(CO)C(OP(=O)(O)O)C1O (stereo partly drawn) in your answer.
0.74

====

- TARGET_OF_ASSAY: TLR2 (Homo sapiens)
- Construct: host or cells: HEK293
- Sequence (O60603 21-784): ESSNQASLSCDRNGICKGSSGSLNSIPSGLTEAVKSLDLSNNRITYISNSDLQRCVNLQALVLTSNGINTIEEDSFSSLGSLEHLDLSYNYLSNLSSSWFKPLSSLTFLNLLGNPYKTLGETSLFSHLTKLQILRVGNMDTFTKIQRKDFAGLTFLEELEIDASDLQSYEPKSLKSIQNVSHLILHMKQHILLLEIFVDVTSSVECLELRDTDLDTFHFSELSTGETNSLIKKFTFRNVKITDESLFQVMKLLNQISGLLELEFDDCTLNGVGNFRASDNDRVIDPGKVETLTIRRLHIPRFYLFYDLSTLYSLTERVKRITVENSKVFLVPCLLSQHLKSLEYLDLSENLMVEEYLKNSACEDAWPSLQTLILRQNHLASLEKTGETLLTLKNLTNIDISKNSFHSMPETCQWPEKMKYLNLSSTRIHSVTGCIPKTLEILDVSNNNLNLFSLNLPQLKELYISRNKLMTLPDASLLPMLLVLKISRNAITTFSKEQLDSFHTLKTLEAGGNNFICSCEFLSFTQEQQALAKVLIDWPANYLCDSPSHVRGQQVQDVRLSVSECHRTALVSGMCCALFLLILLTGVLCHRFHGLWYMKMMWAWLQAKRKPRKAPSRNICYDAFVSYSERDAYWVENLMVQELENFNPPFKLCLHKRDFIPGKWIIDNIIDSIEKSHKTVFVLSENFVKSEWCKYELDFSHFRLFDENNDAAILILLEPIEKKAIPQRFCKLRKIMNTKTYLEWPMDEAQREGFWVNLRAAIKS
- TEST_PROTOCOL: HEK-TLR2 IL-8 secretion
- Type: cell-based
- CONDITION_NOTES: 1111 ng/ml, 24 h
- Source text: The HEK293 cell line was chosen for its null or low basal expression of the TLR genes. These cells enable efficient monitoring of TLR activity using ELISA analysis such as IL-8 titration or reporter-based systems that monitor TLR-induced NF-κB activation. HEK-TLR2 cells (Invivogen, Toulouse, France) are engineered HEK293 cells stably transfected with multiple genes from the TLR2 pathway that include TLR2 and genes participating in the recognition or involved in the signaling cascade. […]
READOUT_TYPE: IL-8 secretion, mean (pg/mL)
Give the number; pg/mL is assumed, so skip it.

Name the recorded IL-8 secretion, mean of the item CCCCCCCCCCCC(=O)O[C@H](CCCCCCCCCCC)CC(=O)N[C@H]1[C@H](OC[C@H]2O[C@H](OCCOP(=O)(O)O)[C@H](NC(=O)C[C@H](O)CCCCCCCCCCC)[C@@H](O)[C@@H]2O)O[C@H](CO)[C@@H](OP(=O)(O)O)[C@@H]1O in your answer.
0.68

Name the recorded IL-8 secretion, mean of the item CCCCCCCCCCCC(=O)O[C@H](CCCCCCCCCCC)CC(=O)N[C@H]1[C@H](OC[C@H]2O[C@H](O)[C@H](NC(=O)C[C@H](O)CCCCCCCCCCC)[C@@H](O)[C@@H]2O)O[C@H](CO)[C@@H](OP(=O)(O)O)[C@@H]1O in your answer.
0.15

Name the recorded IL-8 secretion, mean of the item CCCCCCCCCCCC(=O)O[C@H](CCCCCCCCCCC)CC(=O)N[C@H]1[C@H](OC[C@H]2O[C@H](OCCC)[C@H](NC(=O)C[C@H](O)CCCCCCCCCCC)[C@@H](O)[C@@H]2O)O[C@H](CO)[C@@H](OP(=O)(O)O)[C@@H]1O in your answer.
0.39

Name the recorded IL-8 secretion, mean of the item CCCCCCCCCCCC(=O)O[C@H](CCCCCCCCCCC)CC(=O)N[C@H]1[C@H](OC[C@H]2O[C@H](OCC(O)CO)[C@H](NC(=O)C[C@H](O)CCCCCCCCCCC)[C@@H](O)[C@@H]2O)O[C@H](CO)[C@@H](OP(=O)(O)O)[C@@H]1O (stereo partly shown) in your answer.
0.27
